GI50 for assorted molecules
tested on: HCC 2998; test: NCI tumour cell line growth inhibition, 48 h
The source made the active and inactive calls. Cut-off read from the data, not from the text of the source: active = GI50 up to about 1.1 µM and inactive = higher.

- CC1(C)COC(c2c(-c3ccccc3)noc2C[S+]([O-])c2ccccc2)=N1 (stereo not given): 32.3 µM (inactive)
- COc1ccc(C2C(C(=O)c3ccccc3)=C(O)C(O)(CC(=O)c3ccccc3)N2c2ccc(OC)cc2)cc1 (stereo not given): 11.1 µM (inactive)
- CC1=CC(=O)/C(=C/n2c(=S)[nH]c3ccc([N+](=O)[O-])cc32)C(=O)O1: > 100 µM (inactive)
- CN(C)C(=S)C(Cl)(c1ccccc1)c1ccccc1: > 100 µM (inactive)

Known value: HCC 2998 GI50 of the molecule `O=c1[nH]cc(/N=C/c2cc(Cl)cc(Cl)c2O)c(=O)[nH]1` equals 33.3 µM (inactive)

* * *

tested on: SF-295; assay: NCI tumour cell line growth inhibition, 48 h
Active and inactive are the calls of the source. Rule as the data show it: active = GI50 up to about 1.1 µM and inactive = higher.
I would appreciate it if you answered using one of these outcomes: 1.0 for active, 0.0 for inactive

Answered cases to consult:
- CC1(C)C(=O)C(O)=CC2C1=CCC1C2(C)C(=O)CC2(C)C(C(C)(O)C(=O)CC(O)C(C)(C)O)C(O)CC12C (centres undefined): 0.0
- O=C(CCCCCCCCCCc1ccccc1)C1=C(O)CCCC1=O: 0.0
- CCOC(=O)N1CCC(N[C@@H]2c3cc4c(cc3[C@@H](c3cc(OC)c(O)c(OC)c3)[C@H]3C(=O)OC[C@@H]32)OCO4)CC1: 1.0

Record request — test call for `COc1ccc2c(c1)C(=O)CCc1cc(OC)c(OC)c(OC)c1-2`
1.0

* * *

GI50 for assorted compounds
test system: RPMI-8226; assay: NCI tumour cell line growth inhibition, 48 h
Active and inactive are the calls of the source. Cut-off read from the data, not from the text of the source: active = GI50 up to about 1.1 µM and inactive = higher.

* C=C1C[C@@H](O)[C@@H](Br)C(C)(C)[C@@]12C=CC(O)(CBr)CC2 (some centres undefined) | 24.9 µM (inactive)

GI50 measured on O/N=N/c1ccccn1.OCC1OC2OC3C(CO)OC(OC4C(CO)OC(OC5C(CO)OC(OC6C(CO)OC(OC7C(CO)OC(OC1C(O)C2O)C(O)C7O)C(O)C6O)C(O)C5O)C(O)C4O)C(O)C3O (centres undefined) = 27.3 µM (inactive)

GI50 measured on Cc1cc(=O)oc2c3c(ccc12)OC(c1ccc(Br)cc1)CC3=O (centres undefined) = 4.04 µM (inactive)

GI50 measured on `CN(/N=C\c1ccnc2ccccc12)c1ccc([N+](=O)[O-])cc1` = 8.26 µM (inactive)

* * *

GI50 for assorted molecules
test system: OVCAR-3; test: NCI tumour cell line growth inhibition, 48 h
Activity calls are given as the source filed them. No stated cut-off is given here; in the data, active = GI50 up to about 1.1 µM and inactive = higher.

- O=C(O)C[S+]([O-])c1ccc2c3c(cccc13)C(=O)c1ccccc1-2 (stereo unspecified): > 100 µM (inactive)
- O=C1OC(c2ccccc2)=N/C1=C/NC(Cc1c[nH]cn1)C(=O)O (stereo unspecified): > 100 µM (inactive)
- COC(=O)C1Cc2c(n(C)c3ccccc23)C(CCC(=O)O)N1Cc1ccccc1 (stereo unspecified): 21.1 µM (inactive)

GI50 measured on CC(C)C1OC(=O)/C=C/C=C/C=C/C=C/C=C/CC(O)CC(O)CC(O)CC(O)CC(O)CC(O)CC(O)CC(O)/C=C/C1C (stereo unspecified) = > 100 µM (inactive)

GI50 measured on O=C1CC(c2ccccc2)n2c(nc3ccccc32)N1 (stereo unspecified) = 54.2 µM (inactive)

GI50 measured on `COc1cc(CC(=O)c2cc3c(cc2-c2ccccc2)OCO3)cc(OC)c1OC` = 31 µM (inactive)

GI50 measured on `O=C(CCCCCCCCCCc1ccccc1)C1=C(O)CCCC1=O` = 32.8 µM (inactive)

GI50 measured on Cc1ccc2c(c1)-c1c3c(nn1C)-c1ccccc1SC3O2 (stereo unspecified) = 85.9 µM (inactive)

GI50 measured on CC1(C)COC(c2c(-c3ccccc3)noc2C[S+]([O-])c2ccccc2)=N1 (stereo unspecified) = > 100 µM (inactive)

GI50 measured on `O=C1c2ccccc2C(=O)c2c1ccc1c3ccccc3n(-c3ccccc3)c21` = 19.5 µM (inactive)

GI50 measured on `NC(=O)C(C(N)=O)=C(O)/C(O)=C/C(=O)c1ccccc1` = 51.4 µM (inactive)
